Origin of the recorded values: paper PMC11574364

system-name: RBM23 (Homo sapiens, UniProt Q86U06)
Sequence: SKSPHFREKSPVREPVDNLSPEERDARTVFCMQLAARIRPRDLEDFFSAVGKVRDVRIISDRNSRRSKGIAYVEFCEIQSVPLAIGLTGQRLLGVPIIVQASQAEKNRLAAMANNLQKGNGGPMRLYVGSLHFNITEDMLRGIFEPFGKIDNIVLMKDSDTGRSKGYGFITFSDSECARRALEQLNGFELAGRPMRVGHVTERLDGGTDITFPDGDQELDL
experiment-description: protein domain microarray probed with biotinylated miRNA; Domain array: 20 mM Tris-HCl pH 7.4, 200 mM KCl, 0.2 mM EDTA, 0.05% NP40, 2 ug/ul heparin, overnight 4 C. ORF array: PBS pH 7.0 with RNase inhibitor, 100 ng RNA; high values mean tight binding
measurement-setup: ssRNA

polymer-sequence | binding signal (fluorescence intensity)
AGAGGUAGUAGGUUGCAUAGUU | 644
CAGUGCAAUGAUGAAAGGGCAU | 199
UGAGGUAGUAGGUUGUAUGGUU | 843
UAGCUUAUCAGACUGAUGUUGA | 26.5
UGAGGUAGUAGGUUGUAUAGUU | 162

---

system-name: IGF2BP3(1-2) (Homo sapiens, UniProt O00425)
Sequence (O00425 178-364): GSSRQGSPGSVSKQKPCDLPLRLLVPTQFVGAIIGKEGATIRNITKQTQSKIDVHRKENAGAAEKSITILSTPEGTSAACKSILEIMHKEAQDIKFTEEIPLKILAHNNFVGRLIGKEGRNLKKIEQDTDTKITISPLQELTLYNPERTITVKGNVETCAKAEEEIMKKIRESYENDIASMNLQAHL
experiment-description: protein domain microarray probed with biotinylated miRNA; Domain array: 20 mM Tris-HCl pH 7.4, 200 mM KCl, 0.2 mM EDTA, 0.05% NP40, 2 ug/ul heparin, overnight 4 C. ORF array: PBS pH 7.0 with RNase inhibitor, 100 ng RNA; high values mean tight binding
measurement-setup: ssRNA
Each entry below lists one item and its recorded binding signal value.

polymer-sequence | scale-unit | binding signal
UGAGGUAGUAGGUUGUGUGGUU | fluorescence intensity | 61.2
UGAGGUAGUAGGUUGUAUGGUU | fluorescence intensity | 34.3
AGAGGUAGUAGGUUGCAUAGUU | fluorescence intensity | 44.2
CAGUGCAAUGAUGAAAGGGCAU | fluorescence intensity | 43.1

---

Each entry below lists one item and its recorded binding signal value.
system-name: HNRNPA1L2 (Homo sapiens)
Sequence (Q32P51 1-205): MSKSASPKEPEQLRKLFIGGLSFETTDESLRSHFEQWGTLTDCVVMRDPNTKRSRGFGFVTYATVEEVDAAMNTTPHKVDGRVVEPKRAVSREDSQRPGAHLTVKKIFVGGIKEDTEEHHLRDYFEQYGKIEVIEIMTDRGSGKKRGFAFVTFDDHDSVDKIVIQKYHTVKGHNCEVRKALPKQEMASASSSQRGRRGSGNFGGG
experiment-description: protein domain microarray probed with biotinylated miRNA; Domain array: 20 mM Tris-HCl pH 7.4, 200 mM KCl, 0.2 mM EDTA, 0.05% NP40, 2 ug/ul heparin, overnight 4 C. ORF array: PBS pH 7.0 with RNase inhibitor, 100 ng RNA; high values mean tight binding
measurement-setup: ssRNA

polymer-sequence | binding signal
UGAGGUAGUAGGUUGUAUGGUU | 644 fluorescence intensity
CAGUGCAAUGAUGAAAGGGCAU | 236 fluorescence intensity
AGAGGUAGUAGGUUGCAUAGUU | 630 fluorescence intensity
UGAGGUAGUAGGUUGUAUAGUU | 226 fluorescence intensity

---

system-name: RBMY1C (Homo sapiens)
Sequence (P0DJD4 1-110): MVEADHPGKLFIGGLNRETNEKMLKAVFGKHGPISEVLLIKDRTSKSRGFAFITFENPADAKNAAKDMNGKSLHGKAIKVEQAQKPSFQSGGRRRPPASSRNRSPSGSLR
experiment-description: protein domain microarray probed with biotinylated miRNA; Domain array: 20 mM Tris-HCl pH 7.4, 200 mM KCl, 0.2 mM EDTA, 0.05% NP40, 2 ug/ul heparin, overnight 4 C. ORF array: PBS pH 7.0 with RNase inhibitor, 100 ng RNA; high values mean tight binding
measurement-setup: ssRNA
Each entry below lists one item and its recorded binding signal value.

polymer-sequence | binding signal, fluorescence intensity
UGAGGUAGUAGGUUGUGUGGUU | 1360
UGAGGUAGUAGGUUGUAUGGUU | 1200
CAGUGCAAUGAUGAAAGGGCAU | 1150
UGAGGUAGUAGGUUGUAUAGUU | 643
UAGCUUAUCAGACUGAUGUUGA | 371

---

system-name: hnRNP-2H9 (Homo sapiens)
Sequence: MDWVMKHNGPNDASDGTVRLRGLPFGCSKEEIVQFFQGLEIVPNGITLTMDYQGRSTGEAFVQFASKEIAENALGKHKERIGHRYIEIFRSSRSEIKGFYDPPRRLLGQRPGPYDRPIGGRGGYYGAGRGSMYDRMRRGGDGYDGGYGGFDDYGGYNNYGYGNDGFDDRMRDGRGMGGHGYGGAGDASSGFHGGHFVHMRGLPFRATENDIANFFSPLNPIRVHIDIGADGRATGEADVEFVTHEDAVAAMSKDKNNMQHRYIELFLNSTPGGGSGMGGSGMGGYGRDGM
experiment-description: protein domain microarray probed with biotinylated miRNA; Domain array: 20 mM Tris-HCl pH 7.4, 200 mM KCl, 0.2 mM EDTA, 0.05% NP40, 2 ug/ul heparin, overnight 4 C. ORF array: PBS pH 7.0 with RNase inhibitor, 100 ng RNA; high values mean tight binding
measurement-setup: ssRNA

polymer-sequence | binding signal
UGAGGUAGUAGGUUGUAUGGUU | 368 fluorescence intensity
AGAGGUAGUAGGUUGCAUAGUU | 466 fluorescence intensity
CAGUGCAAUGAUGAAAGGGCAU | 533 fluorescence intensity
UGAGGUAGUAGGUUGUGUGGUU | 443 fluorescence intensity

---

system-name: hnRNP-A1 (Homo sapiens, UniProt P09651)
Sequence (P09651 1-205): as the sequence (Q32P51 1-205) above, with A5E, T74A, T75R, K171N, P182S, R197S counted along it
experiment-description: protein domain microarray probed with biotinylated miRNA; Domain array: 20 mM Tris-HCl pH 7.4, 200 mM KCl, 0.2 mM EDTA, 0.05% NP40, 2 ug/ul heparin, overnight 4 C. ORF array: PBS pH 7.0 with RNase inhibitor, 100 ng RNA; high values mean tight binding
measurement-setup: ssRNA
readout-label: binding signal (fluorescence intensity)

polymer-sequence | readout-label | result-number
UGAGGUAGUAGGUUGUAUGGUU | binding signal | 74.6
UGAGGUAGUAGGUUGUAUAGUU | binding signal | 22
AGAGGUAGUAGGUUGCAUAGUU | binding signal | 62.9
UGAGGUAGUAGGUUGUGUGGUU | binding signal | 77.3

---

system-name: FXR1(1-2) (Homo sapiens, UniProt P51114)
Sequence (P51114 201-372): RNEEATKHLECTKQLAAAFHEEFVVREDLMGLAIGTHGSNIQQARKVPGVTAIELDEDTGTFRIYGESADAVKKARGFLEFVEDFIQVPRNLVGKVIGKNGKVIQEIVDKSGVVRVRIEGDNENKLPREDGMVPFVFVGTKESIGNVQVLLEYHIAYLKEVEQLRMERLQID
experiment-description: protein domain microarray probed with biotinylated miRNA; Domain array: 20 mM Tris-HCl pH 7.4, 200 mM KCl, 0.2 mM EDTA, 0.05% NP40, 2 ug/ul heparin, overnight 4 C. ORF array: PBS pH 7.0 with RNase inhibitor, 100 ng RNA; high values mean tight binding
measurement-setup: ssRNA
Each entry below lists one item and its recorded binding signal value.

polymer-sequence | binding signal, fluorescence intensity
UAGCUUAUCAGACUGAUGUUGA | 31.1
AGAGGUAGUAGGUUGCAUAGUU | 46.8
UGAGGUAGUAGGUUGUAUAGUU | 34.3
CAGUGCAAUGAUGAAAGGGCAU | 112

---

system-name: PPRC1 (Homo sapiens)
Sequence: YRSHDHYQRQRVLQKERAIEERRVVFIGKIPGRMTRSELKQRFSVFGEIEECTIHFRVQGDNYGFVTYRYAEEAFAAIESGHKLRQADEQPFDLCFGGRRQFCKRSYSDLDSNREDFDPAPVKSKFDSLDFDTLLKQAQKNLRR
experiment-description: protein domain microarray probed with biotinylated miRNA; Domain array: 20 mM Tris-HCl pH 7.4, 200 mM KCl, 0.2 mM EDTA, 0.05% NP40, 2 ug/ul heparin, overnight 4 C. ORF array: PBS pH 7.0 with RNase inhibitor, 100 ng RNA; high values mean tight binding
measurement-setup: ssRNA

polymer-sequence | scale-unit | binding signal
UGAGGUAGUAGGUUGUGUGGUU | fluorescence intensity | 155
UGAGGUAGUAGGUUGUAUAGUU | fluorescence intensity | 24.9
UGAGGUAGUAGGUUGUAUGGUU | fluorescence intensity | 134
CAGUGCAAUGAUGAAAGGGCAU | fluorescence intensity | 43

---

system-name: KHSRP(1-4) (Homo sapiens)
Sequence: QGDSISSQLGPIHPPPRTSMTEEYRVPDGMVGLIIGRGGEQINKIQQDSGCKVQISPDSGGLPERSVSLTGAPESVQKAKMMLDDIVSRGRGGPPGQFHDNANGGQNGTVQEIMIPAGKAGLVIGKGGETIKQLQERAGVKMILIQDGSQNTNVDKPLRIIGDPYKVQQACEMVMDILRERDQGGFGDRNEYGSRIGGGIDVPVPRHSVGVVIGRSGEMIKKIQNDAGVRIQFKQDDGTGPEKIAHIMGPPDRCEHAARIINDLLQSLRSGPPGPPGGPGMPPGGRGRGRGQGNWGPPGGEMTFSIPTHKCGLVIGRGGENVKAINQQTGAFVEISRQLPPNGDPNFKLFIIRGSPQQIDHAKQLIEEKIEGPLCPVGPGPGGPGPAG
experiment-description: protein domain microarray probed with biotinylated miRNA; Domain array: 20 mM Tris-HCl pH 7.4, 200 mM KCl, 0.2 mM EDTA, 0.05% NP40, 2 ug/ul heparin, overnight 4 C. ORF array: PBS pH 7.0 with RNase inhibitor, 100 ng RNA; high values mean tight binding
measurement-setup: ssRNA
binding signal below 400 fluorescence intensity gives 0; binding signal at or above it gives 1.

polymer-sequence | category-label
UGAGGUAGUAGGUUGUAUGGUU | 1
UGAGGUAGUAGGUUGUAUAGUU | 1
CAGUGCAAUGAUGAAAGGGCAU | 1
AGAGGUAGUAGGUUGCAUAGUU | 1
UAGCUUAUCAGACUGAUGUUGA | 0
